The measurements presented in this section are drawn from patent US20180185504A1.

Molecular target: T1, hPRLR.mFc (soluble dimeric human PRLR) (human)
T1 construct: dimeric PRLR construct
T1 chain: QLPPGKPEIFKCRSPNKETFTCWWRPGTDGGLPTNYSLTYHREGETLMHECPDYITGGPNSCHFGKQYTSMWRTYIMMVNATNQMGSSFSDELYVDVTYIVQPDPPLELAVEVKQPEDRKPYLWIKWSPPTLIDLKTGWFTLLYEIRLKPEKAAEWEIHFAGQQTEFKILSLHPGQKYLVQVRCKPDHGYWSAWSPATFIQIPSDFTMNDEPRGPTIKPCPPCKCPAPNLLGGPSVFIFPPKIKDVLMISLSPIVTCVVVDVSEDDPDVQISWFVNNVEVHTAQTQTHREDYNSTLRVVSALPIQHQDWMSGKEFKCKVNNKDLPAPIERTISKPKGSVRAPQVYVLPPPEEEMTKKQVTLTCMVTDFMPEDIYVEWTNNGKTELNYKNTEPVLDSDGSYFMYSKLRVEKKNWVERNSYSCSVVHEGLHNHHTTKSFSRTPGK
Assay: SPR Biacore, 25 C, mAb capture
Procedure: Measurements were conducted on a T200 Biacore instrument. Kinetic association (kₐ) and dissociation (kd) rate constants were determined by processing and fitting the data to a 1:1 binding model using Scrubber 2.0 curve fitting software.
Label Yes when T½ >= 2 h; otherwise No.

query: Please indicate if the recorded T½ for H1H6953N (antibody, human IgG1, V domains shown, Tested with human IgG1 Fc (H1H); also called H1M6953N) VH: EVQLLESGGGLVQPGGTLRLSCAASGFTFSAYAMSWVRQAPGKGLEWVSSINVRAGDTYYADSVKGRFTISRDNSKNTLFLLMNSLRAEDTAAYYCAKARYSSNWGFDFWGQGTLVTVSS VL: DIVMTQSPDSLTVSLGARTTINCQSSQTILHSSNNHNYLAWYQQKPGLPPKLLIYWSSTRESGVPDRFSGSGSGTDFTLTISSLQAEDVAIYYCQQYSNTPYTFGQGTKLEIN meets or exceeds 2 h.
result: Yes

query: Please indicate if the recorded T½ for H1H6762P (antibody, human IgG1, V domains shown, Human IgG1 Fc (H1H)) VH: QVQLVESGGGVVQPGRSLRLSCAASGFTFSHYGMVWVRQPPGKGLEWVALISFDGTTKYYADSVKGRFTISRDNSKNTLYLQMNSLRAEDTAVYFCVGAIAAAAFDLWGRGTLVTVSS VL: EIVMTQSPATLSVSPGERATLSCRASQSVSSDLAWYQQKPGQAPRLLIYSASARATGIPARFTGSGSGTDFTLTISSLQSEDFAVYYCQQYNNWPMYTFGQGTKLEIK meets or exceeds 2 h.
result: Yes

query: Please indicate if the recorded T½ for H1H6800P (antibody, human IgG1, V domains shown, Human IgG1 Fc (H1H)) VH: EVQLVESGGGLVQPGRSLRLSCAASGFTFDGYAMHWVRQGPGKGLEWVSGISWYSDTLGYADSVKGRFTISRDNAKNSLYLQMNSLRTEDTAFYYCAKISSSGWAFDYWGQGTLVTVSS VL: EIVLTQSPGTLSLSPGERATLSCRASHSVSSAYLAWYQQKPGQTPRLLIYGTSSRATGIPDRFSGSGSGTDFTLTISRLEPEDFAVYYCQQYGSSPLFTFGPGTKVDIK meets or exceeds 2 h.
result: Yes

query: Please indicate if the recorded T½ for H1H6976N (antibody, human IgG1, V domains shown, Tested with human IgG1 Fc (H1H); also called H2M6976N) VH: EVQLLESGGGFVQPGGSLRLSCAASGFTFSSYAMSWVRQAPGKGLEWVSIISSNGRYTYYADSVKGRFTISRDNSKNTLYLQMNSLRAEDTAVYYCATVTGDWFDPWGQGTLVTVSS VL: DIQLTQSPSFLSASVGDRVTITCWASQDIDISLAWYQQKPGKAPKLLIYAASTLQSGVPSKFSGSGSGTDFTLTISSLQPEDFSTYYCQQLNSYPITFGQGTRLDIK meets or exceeds 2 h.
result: No

query: Please indicate if the recorded T½ for H1H6797P (antibody, human IgG1, V domains shown, Human IgG1 Fc (H1H)) VH: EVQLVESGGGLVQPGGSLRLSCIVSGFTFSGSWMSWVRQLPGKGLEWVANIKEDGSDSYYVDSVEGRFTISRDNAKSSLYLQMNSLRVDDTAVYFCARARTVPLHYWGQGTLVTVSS VL: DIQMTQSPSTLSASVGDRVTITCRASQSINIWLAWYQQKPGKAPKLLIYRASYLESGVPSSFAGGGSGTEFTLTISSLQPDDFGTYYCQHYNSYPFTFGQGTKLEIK meets or exceeds 2 h.
result: No
